biological target: Sigma non-opioid intracellular receptor 1 (Rattus norvegicus); assay: Binding affinity towards sigma opioid receptor was determined in rat cerebral homogenate using [3H]haloperidol as radioligand
Sequence (Q9R0C9 whole entry): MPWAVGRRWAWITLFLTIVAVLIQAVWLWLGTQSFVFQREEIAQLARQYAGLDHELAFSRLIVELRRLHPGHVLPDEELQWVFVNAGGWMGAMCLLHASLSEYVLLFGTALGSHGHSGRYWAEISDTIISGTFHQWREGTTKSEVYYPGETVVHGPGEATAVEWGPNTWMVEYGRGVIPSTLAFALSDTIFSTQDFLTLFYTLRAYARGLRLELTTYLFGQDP
# key: entry, value: pKi
pKi is defined as minus the log10 of a concentration measured in mol/L.

COMPOUND	NUMERIC_READOUT
C[C@H](Cc1ccccc1)NCCCc1ccccc1	7.85
C[C@H](Cc1ccccc1)NCC1CC1	6.18
C[C@H](Cc1ccccc1)NCCC(=O)c1ccccc1	7.14
C[C@@H](Cc1ccccc1)NCCc1ccccc1	8.32
C[C@@H](Cc1ccccc1)N(C)CCc1ccccc1	7.80

Input: Find the measured pKi of C[C@H](Cc1ccccc1)NCCOc1ccccc1 with Sigma non-opioid intracellular receptor 1 (Rattus norvegicus) as test system.
Output: 7.49

Input: Send back Sigma non-opioid intracellular receptor 1 (Rattus norvegicus) pKi of C[C@H](Cc1ccccc1)NCCc1ccccc1 only.
Output: 7.34

Input: Find pKi for C[C@H](Cc1ccccc1)NCc1ccccc1 on Sigma non-opioid intracellular receptor 1 (Rattus norvegicus) and write it down.
Output: 6.99

Input: Supply pKi measured with Sigma non-opioid intracellular receptor 1 (Rattus norvegicus) for CC(Cc1ccccc1)NCCCCc1ccccc1 (racemic) .
Output: 8.41

Each recorded value in this set is attributed to ChEMBL document CHEMBL1125624.
